# Test system: NIH3T3
# Test Details: Cytotoxic Profiling of Annotated Libraries Using Quantitative High-Throughput Screening (AID 1296008); also: nearly all actives have a fitted effect of over 60% in size
# Condition Details: Five cell lines viability, CellTiter-Glo ATP luminescence, 48-72 h
Inconclusive results are not listed. The source made the active and inactive calls. Calls follow the shape of the dose curve; as a rule, active = well fitted inhibition curve with a large enough effect; inconclusive = small, poorly fitted or top-dose-only effect; inactive = flat fitted curve, though single readings scatter.
Classes used: Yes for active, No for inactive

| Compound | Test System | Qualitative Label |
| --- | --- | --- |
| COc1cc(C(=O)N2CCOCC2)cc(OC)c1OC | NIH3T3 | No |
| CCOC(CN1CCN(CC(C)C(=O)c2ccccc2)CC1)c1ccccc1 (stereo not drawn) | NIH3T3 | No |
| NC1[C@H]2CN(c3nc4c(cc3F)c(=O)c(C(=O)O)cn4-c3ccc(F)cc3F)C[C@@H]12 (stereo partly drawn) | NIH3T3 | Yes |

Source of measurements: PubChem BioAssay (NCATS)
